FYI, the data here is from PubChem BioAssay AID1671190.

Target: Polyunsaturated fatty acid lipoxygenase ALOX12 (Homo sapiens) (UniProt P18054)
Sequence (P18054 whole entry, looked up): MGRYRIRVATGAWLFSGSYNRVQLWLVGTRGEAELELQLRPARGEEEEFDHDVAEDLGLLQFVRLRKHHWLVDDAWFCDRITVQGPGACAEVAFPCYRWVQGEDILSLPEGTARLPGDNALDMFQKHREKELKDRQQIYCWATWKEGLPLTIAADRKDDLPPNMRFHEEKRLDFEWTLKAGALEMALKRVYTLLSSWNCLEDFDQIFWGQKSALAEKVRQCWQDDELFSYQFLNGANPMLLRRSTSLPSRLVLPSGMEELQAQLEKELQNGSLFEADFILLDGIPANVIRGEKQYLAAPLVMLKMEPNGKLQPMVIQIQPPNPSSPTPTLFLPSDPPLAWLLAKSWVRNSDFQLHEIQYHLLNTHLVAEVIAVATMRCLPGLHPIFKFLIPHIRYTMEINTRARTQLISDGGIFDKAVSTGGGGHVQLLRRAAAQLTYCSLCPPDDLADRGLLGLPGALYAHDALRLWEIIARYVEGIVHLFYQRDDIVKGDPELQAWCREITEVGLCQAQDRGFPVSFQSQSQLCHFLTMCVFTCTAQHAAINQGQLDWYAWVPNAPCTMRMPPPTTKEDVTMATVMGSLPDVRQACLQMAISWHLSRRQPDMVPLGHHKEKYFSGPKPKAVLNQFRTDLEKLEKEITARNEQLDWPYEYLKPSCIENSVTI
Assay: Primary qHTS assay for inhibitors of human arachidonate 12S-lipoxygenase (ALOX12): Round 2
Conditions: purified 12hLO, xylenol orange hydroperoxide absorbance; series mostly up to 108 µM
The campaign covered roughly 580,000 compounds. About 6,100 (1.1%) were called active. Another 15% or so got no clear call; they are omitted. Calls follow the shape of the dose curve; as a rule, active = well fitted inhibition curve with a large enough effect; inconclusive = small, poorly fitted or top-dose-only effect, or another doubt; inactive = no such curve, though single readings can be large or run the other way. The full list was thinned out, with actives kept by preference.
The reply should be one of these categories: yes (active), no (inactive)

| Compound | Class |
| --- | --- |
| Cc1nccn1-c1ccc(NC(=O)[C@H]2O[C@@H](n3ccc(=O)[nH]c3=O)[C@H](O)[C@@H]2O)cc1 | no |

INPUT: Check the results log: what was the call for CC1(C)CC(=O)C2=C(C1)OC(N)=C(C#N)C2c1cccnc1 (stereo unspecified) ?
OUTPUT: no

INPUT: Check the results log: what was the call for `O=C(N[C@H](Cc1ccccc1)C(=O)N1CCCN(Cc2cccs2)CC1)[C@H]1O[C@@H](n2ccc(=O)[nH]c2=O)[C@H](O)[C@@H]1O` ?
OUTPUT: no

----------
Molecular target: Polyunsaturated fatty acid lipoxygenase ALOX12 (Homo sapiens) (UniProt P18054)
Assay: Primary qHTS assay for inhibitors of human arachidonate 12S-lipoxygenase (ALOX12): Round 2
Conditions: purified 12hLO, xylenol orange hydroperoxide absorbance; series mostly up to 108 µM
The whole screen tested about 580,000 compounds, of which about 6,100 (1.1%) were called active. Roughly 15% stayed inconclusive and do not appear here. Calls follow the shape of the dose curve; as a rule, active = well fitted inhibition curve with a large enough effect; inconclusive = small, poorly fitted or top-dose-only effect, or another doubt; inactive = no such curve, though single readings can be large or run the other way. For the sample, actives were picked, then their nearest neighbours and some compounds at random.
The reply should be one of these categories: active, inactive

Look over these answered cases.
| Compound | Class |
| --- | --- |
| O=C(Nc1ccc2nc(SCC(=O)N3CCCc4ccccc43)sc2c1)c1ccc(F)cc1 | inactive |
| CC(C)COC(=O)/C(C#N)=C\c1c[nH]c2ccccc12 | inactive |
| O=[N+]([O-])/C=C/c1ccc(-c2ccccc2)o1 | active |

INPUT: Check the results log: what was the call for N#CCCn1cc(C(=O)CN2C(=O)NC3(CCOc4ccccc43)C2=O)c2ccccc21 (configuration not stated) ?
OUTPUT: inactive

INPUT: Check the results log: what was the call for `O=C(O)c1ccc(CSc2ccc(Cl)cc2Cl)cc1` ?
OUTPUT: inactive

INPUT: Check the results log: what was the call for `O=C(Nc1ccc2nc(N3CCCC3)sc2c1)c1ccc(F)cc1` ?
OUTPUT: inactive

INPUT: Check the results log: what was the call for CCC(CO)Oc1cc(NC(=O)c2ccc(Cl)cc2)c2ncn(C(C)C)c2c1 (configuration not stated) ?
OUTPUT: active

INPUT: Check the results log: what was the call for `O=C(OCC(=O)N1CCOCC1)c1ccc2ccccc2c1` ?
OUTPUT: inactive

----------
Biological target: Polyunsaturated fatty acid lipoxygenase ALOX12 (Homo sapiens) (UniProt P18054)
Test: Primary qHTS assay for inhibitors of human arachidonate 12S-lipoxygenase (ALOX12): Round 2
Conditions: purified 12hLO, xylenol orange hydroperoxide absorbance; series mostly up to 108 µM
Excerpt: Assay Provider: Theodore R. Holman Ph.D. University of California, Santa Cruz, California Human lipoxygenase 12hLO is a member of the closely related lipoxygenase family of enzymes which catalyze the site-specific oxidation of arachidonic acid to various hormone precursor molecules and as such is a candidate for drug development in a variety of disease areas, such as cancer and inflammation. […] The Fe (III)-XO complex is characterized with red-shifted absorbance at 560 nm. […]
Screen size: about 580,000 compounds; about 6,100 (1.1%) were called active. Another 15% or so got no clear call; they are omitted. The call rests on the fitted dose curve; in most records, active means well fitted inhibition curve with a large enough effect; inconclusive means small, poorly fitted or top-dose-only effect, or another doubt; inactive means no such curve, though single readings can be large or run the other way. The sample holds actives, similar compounds and a random draw of the others, so the mix is not that of the screen.
The reply should be one of these categories: active, inactive

| Smiles Record | Class |
| --- | --- |
| CN(C)[C@H]1CCCCN(C(=O)CC2CCN(Cc3ccccc3)CC2)C1 | inactive |

INPUT: Check the results log: what was the call for `O=C1[C@@H]2C[C@@H](CN2Cc2ccc3ccccc3n2)Oc2ccccc2N1Cc1ccccc1` ?
OUTPUT: active

INPUT: Check the results log: what was the call for `N#Cc1ccc(CN2C[C@@H]3C[C@H]2C(=O)Nc2ccccc2O3)cc1` ?
OUTPUT: inactive

INPUT: Check the results log: what was the call for `CCC(=O)Nc1ccc2nnc(-c3ccc(C(=O)Nc4ccc(OC)cc4)cc3)n2c1` ?
OUTPUT: inactive

INPUT: Check the results log: what was the call for `CCOc1ccc(-c2nc(CN3CCN(C(=O)Nc4ccccc4OC)CC3)c(C)o2)cc1` ?
OUTPUT: inactive

----------
Target: Polyunsaturated fatty acid lipoxygenase ALOX12 (Homo sapiens)
Assay: Primary qHTS assay for inhibitors of human arachidonate 12S-lipoxygenase (ALOX12): Round 2
Details: purified 12hLO, xylenol orange hydroperoxide absorbance; series mostly up to 108 µM
The campaign covered roughly 580,000 compounds. About 6,100 (1.1%) were called active. About 15% were inconclusive and are not listed. Calls come from the whole dose curve; as a rule, active = well fitted inhibition curve with a large enough effect; inconclusive = small, poorly fitted or top-dose-only effect, or another doubt; inactive = no such curve, though single readings can be large or run the other way. What follows is part of a selection rich in actives, with near analogues and random picks from the rest.
The reply should be one of these categories: active, inactive

| Molecule | Class |
| --- | --- |
| COC(=O)CN1C(=O)C(O)=C(C(C)=O)C1c1ccc([N+](=O)[O-])cc1 (centres undefined) | inactive |
| CCCCC(=O)Nc1ccccc1C(C)CC (centres undefined) | inactive |
| COc1cccc(C2C(C#N)=C(N)OC3=C2S(=O)(=O)N(C)c2ccccc23)c1OC (centres undefined) | inactive |

INPUT: Check the results log: what was the call for CC(C)c1ccc(C2CC(=O)N3CN(C4CCCCC4)CSC3=C2C#N)cc1 (centres undefined) ?
OUTPUT: active

INPUT: Check the results log: what was the call for `Cc1cc2cc(-c3c(C)noc3C)nc(NCc3cccnc3)c2o1` ?
OUTPUT: inactive

INPUT: Check the results log: what was the call for CC(=O)C1=C(O)C(=O)N(c2ccc(Br)cc2)C1c1ccc([N+](=O)[O-])cc1 (centres undefined) ?
OUTPUT: active

INPUT: Check the results log: what was the call for `CCCc1c(C)nc(Nc2nc(C)c3ccc(C)cc3n2)[nH]c1=O` ?
OUTPUT: inactive

INPUT: Check the results log: what was the call for `CN(Cc1ccccc1N1CCCC1)C(=O)c1ccc(S(=O)(=O)N2CCOCC2)cc1` ?
OUTPUT: inactive

INPUT: Check the results log: what was the call for CC1(OC(=O)C2CCCC2)C(=O)C=C2C=C(c3ccc(C#N)cc3)OC=C2C1=O (centres undefined) ?
OUTPUT: active

INPUT: Check the results log: what was the call for Cc1ccc2[nH]cc(C(C(=O)O)N3CCN(S(=O)(=O)c4ccccc4)CC3)c2c1 (centres undefined) ?
OUTPUT: inactive

INPUT: Check the results log: what was the call for `CCc1cccc2c(C(=O)CSc3nnnn3C3CC3)c[nH]c12` ?
OUTPUT: inactive

INPUT: Check the results log: what was the call for `C=CCNC(=S)N(CC)CC` ?
OUTPUT: inactive

INPUT: Check the results log: what was the call for `Cc1noc(C)c1-c1cc(NCc2cccnc2)ncn1` ?
OUTPUT: active

INPUT: Check the results log: what was the call for `CCc1ccc(-c2ccccc2)nc1-c1ccccc1` ?
OUTPUT: inactive

INPUT: Check the results log: what was the call for `c1ccc2c(c1)C(=NC1CCCCC1)NC2=NC1CCCCC1` ?
OUTPUT: active

INPUT: Check the results log: what was the call for `CCCCn1nc(C(=O)Nc2cc(Cl)ccc2C)c2ccccc2c1=O` ?
OUTPUT: inactive

INPUT: Check the results log: what was the call for `CCCn1c(SCC(=O)N2CCc3ccccc32)nnc1-c1ccncc1` ?
OUTPUT: inactive

INPUT: Check the results log: what was the call for `CCc1cccc(NC(=O)CC(C)C)c1` ?
OUTPUT: inactive

INPUT: Check the results log: what was the call for `N#Cc1ccc(-c2nc(C(=O)NC3CCCCCC3)no2)cc1` ?
OUTPUT: inactive

----------
Target: Polyunsaturated fatty acid lipoxygenase ALOX12 (Homo sapiens) (UniProt P18054)
Assay: Primary qHTS assay for inhibitors of human arachidonate 12S-lipoxygenase (ALOX12): Round 2
Settings: purified 12hLO, xylenol orange hydroperoxide absorbance; series mostly up to 108 µM
Among all 580,000 compounds or so, about 6,100 (1.1%) were called active. Another 15% or so got no clear call; they are omitted. The call rests on the fitted dose curve; in most records, active means well fitted inhibition curve with a large enough effect; inconclusive means small, poorly fitted or top-dose-only effect, or another doubt; inactive means no such curve, though single readings can be large or run the other way. What follows is part of a selection rich in actives, with near analogues and random picks from the rest.
The reply should be one of these categories: true (active), false (inactive)

Look over these answered cases.
| Compound | Class |
| --- | --- |
| Cc1cnc(-c2ccncc2)n1CCN | true |
| CCCCCCSc1ccc([C@@H]2[C@@H]3C(=O)N(CC)C(=O)[C@@H]3[C@]3(C(=O)OC)CCCCN23)cc1OC | true |
| Cc1cnc(C)n1CCN | false |
| CC(Oc1cccc(Cl)c1)C(=O)Nc1ccc(S(=O)(=O)Nc2ncccn2)cc1 (stereo not given) | false |
| CCN1C(=O)[C@@H]2[C@@H](c3ccc(-c4ccc(OC)cc4)c(OC)c3)N3CCC[C@@]3(C(=O)OC)[C@@H]2C1=O | false |
| CCCC1CCC(c2ccc(-c3ccc(CC)cn3)cc2F)CC1 (stereo not given) | false |
| COC(=O)C1=C(C)N=C2SC=C(CC(=O)NCc3ccccc3F)N2C1c1ccccc1Cl (stereo not given) | false |
| CCCCCCSc1ccc([C@@H]2[C@H]3C(=O)N(CC)C(=O)[C@H]3[C@]3(C(=O)OC)CCCCN23)cc1 | false |
| COC(=O)Nc1ccc(S(=O)(=O)Nc2cc(OC)nc(OC)n2)cc1 | false |

INPUT: Check the results log: what was the call for `O=C(CN1CCN(C(=O)CCCc2c[nH]c3ccccc23)CC1)NC1CC1` ?
OUTPUT: false
